Measured % inhibition by item
measured target: T1, cMetSEMA-567His8 (human, UniProt P08581 25-567, limits assumed)
T1 construct: In the TR-FRET assay detected by anti-6xhis Europium3+; also called cMetSEMAHis; SEMA domain of c-Met; not shown: C-terminal His tag; the text says His9, the construct name says His8
T1 sequence (P08581 25-567 limits assumed, form in doubt): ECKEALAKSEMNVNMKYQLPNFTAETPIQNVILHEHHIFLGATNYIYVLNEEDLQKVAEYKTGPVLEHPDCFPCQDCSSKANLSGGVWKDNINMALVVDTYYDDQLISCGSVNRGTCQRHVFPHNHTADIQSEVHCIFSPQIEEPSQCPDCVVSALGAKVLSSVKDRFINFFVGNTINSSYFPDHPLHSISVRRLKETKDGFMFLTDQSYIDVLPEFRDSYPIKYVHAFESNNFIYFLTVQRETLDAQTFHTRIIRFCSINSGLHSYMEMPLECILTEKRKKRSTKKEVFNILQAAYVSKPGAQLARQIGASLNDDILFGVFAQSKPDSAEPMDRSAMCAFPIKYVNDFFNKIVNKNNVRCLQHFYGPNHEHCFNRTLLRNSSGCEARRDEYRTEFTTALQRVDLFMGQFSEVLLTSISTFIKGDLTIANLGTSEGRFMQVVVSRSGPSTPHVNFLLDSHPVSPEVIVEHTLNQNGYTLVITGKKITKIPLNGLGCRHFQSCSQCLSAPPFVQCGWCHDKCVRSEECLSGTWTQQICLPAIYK
protocol: TR-FRET; displacement of AlexaFluor-647-HGF from cMetSEMA-567His8
I only need the number, in %, no unit after it.

anti-c-Met HuMab 045 (IgG1) (antibody, V domains shown, also called TH1016-045; PC1016-045) VH: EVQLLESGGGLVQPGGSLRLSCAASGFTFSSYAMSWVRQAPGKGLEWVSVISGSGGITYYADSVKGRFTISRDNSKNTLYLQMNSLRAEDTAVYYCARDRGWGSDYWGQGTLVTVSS VL: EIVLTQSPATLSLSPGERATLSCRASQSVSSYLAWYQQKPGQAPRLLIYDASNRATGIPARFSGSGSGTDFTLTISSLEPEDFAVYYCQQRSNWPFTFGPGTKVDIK; 92

We next turn to a different binder, shown below.
Tell me % inhibition reported for anti-c-Met HuMab 098 (IgG1) (antibody, V domains shown, also called TH1016-098; PC1016-098) VH: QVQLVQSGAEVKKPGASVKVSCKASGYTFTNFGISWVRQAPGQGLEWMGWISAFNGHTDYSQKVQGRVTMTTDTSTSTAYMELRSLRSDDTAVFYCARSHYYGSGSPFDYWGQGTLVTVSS VL: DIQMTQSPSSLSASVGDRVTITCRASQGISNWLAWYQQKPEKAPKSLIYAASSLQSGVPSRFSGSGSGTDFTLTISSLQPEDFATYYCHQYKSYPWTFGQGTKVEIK 98
